Every entry's value here was drawn from paper PMC10590056.

tested on: KYSE-30 cells; test: MTT assay for cell proliferation, KYSE-30; type: cell-based; set-up: key: inhibition rate = 1 - mean A490 sample/mean A490 control (fraction); settings: KYSE-30, given as fraction; first of three experiments
QUANTITY NAME: Inhibitory rate

Worked set:
[
  {
    "COMPOUND": "COc1c2n(cc(C(=O)Nc3cccc(-c4cn(-c5ccccc5)nn4)c3)c1=O)CC1OCC(C)N1C2=O (stereo not drawn)",
    "Inhibitory rate": 0.366
  },
  {
    "COMPOUND": "COc1c2n(cc(C(=O)Nc3cccc(-c4cn(-c5cccc(Br)c5)nn4)c3)c1=O)CC1OCC(C)N1C2=O (stereo not drawn)",
    "Inhibitory rate": 0.615
  },
  {
    "COMPOUND": "COc1ccccc1-n1cc(-c2cccc(NC(=O)c3cn4c(c(OC)c3=O)C(=O)N3[C@@H](C)CO[C@@H]3C4)c2)nn1",
    "Inhibitory rate": 0.4841
  }
]

Per the records, this compound ( `COc1c2n(cc(C(=O)Nc3cccc(-c4cn(-c5c(C)cc(C)cc5C)nn4)c3)c1=O)C[C@H]1OC[C@H](C)N1C2=O` ) has Inhibitory rate equal to 0.5405

Per the records, this compound ( `COc1c2n(cc(C(=O)Nc3cccc(-c4cn(-c5ccccc5C(F)(F)F)nn4)c3)c1=O)C[C@H]1OC[C@H](C)N1C2=O` ) has Inhibitory rate equal to 0.4271

Per the records, this compound ( COc1c2n(cc(C(=O)Nc3cccc(-c4cn(-c5ccccc5I)nn4)c3)c1=O)CC1OCC(C)N1C2=O (stereo not drawn) ) has Inhibitory rate equal to 0.4013

Per the records, this compound ( COc1c2n(cc(C(=O)Nc3cccc(-c4cn(-c5ccccc5Br)nn4)c3)c1=O)CC1OCC(C)N1C2=O (stereo not drawn) ) has Inhibitory rate equal to 0.2898

Per the records, this compound ( `COc1c2n(cc(C(=O)Nc3cccc(-c4cn(-c5cccc(F)c5)nn4)c3)c1=O)C[C@H]1OC[C@H](C)N1C2=O` ) has Inhibitory rate equal to 0.6183

Per the records, this compound ( COc1c2n(cc(C(=O)Nc3cccc(-c4cn(-c5ccc(F)cc5)nn4)c3)c1=O)CC1OCC(C)N1C2=O (stereo not drawn) ) has Inhibitory rate equal to 0.4878

Per the records, this compound ( `COc1c2n(cc(C(=O)Nc3cccc(-c4cn(-c5ccccc5OC(F)(F)F)nn4)c3)c1=O)C[C@H]1OC[C@H](C)N1C2=O` ) has Inhibitory rate equal to 0.6483

Per the records, this compound ( `COc1c2n(cc(C(=O)Nc3cccc(-c4cn(-c5ccccc5F)nn4)c3)c1=O)C[C@H]1OC[C@H](C)N1C2=O` ) has Inhibitory rate equal to 0.4989

Per the records, this compound ( `COc1c2n(cc(C(=O)Nc3cccc(-c4cn(-c5ccccc5C)nn4)c3)c1=O)C[C@H]1OC[C@H](C)N1C2=O` ) has Inhibitory rate equal to 0.3903
